The measurements presented in this section are drawn from PubChem BioAssay (NCI).

- Tested on: A549 NSCLC
- Method notes: NCI tumour cell line growth inhibition, 48 h; in the data active = GI50 below about 0.43 µM; inactive = the rest
One label from this list, please: active, inactive

Ask | Entry `COc1ccc(-c2[nH]ncc2-c2cc(OC)c(OC)c(OC)c2)cc1` : call = ?
Reply | active

Ask | Entry `NCC(=O)CCC(=O)O` : call = ?
Reply | inactive

Ask | Entry `COc1ccc(-c2c(C#N)c(N)nc3c2CCCc2ccc(F)cc2-3)cc1OC` : call = ?
Reply | active

Ask | Entry `CN(C)CCCC(=O)Nc1ccc(Cn2nnc3c2C(=O)c2nnn(Cc4ccc(NC(=O)CCCN(C)C)cc4)c2C3=O)cc1` : call = ?
Reply | inactive

Ask | Entry C#CC#CC#CC#CC#CC#CC#CC#CCC1OC[C@H](COC(=O)O[C@@H](C(=O)O[C@H]2C[C@@]3(O)[C@@H](OC(=O)c4ccccc4)[C@@H]4[C@]5(OC(C)=O)CO[C@@H]5C[C@H](O)[C@@]4(C)C(=O)[C@H](OC(C)=O)C(=C2C)C3(C)C)[C@@H](NC(=O)c2ccccc2)c2ccccc2)O1 (stereo not given in full) : call = ?
Reply | active

Ask | Entry `O=C1C(=O)c2c(nc3ncccn23)-c2ccccc21` : call = ?
Reply | active

Ask | Entry `Clc1ccc(Nc2nc3ccccc3c3occc23)cc1` : call = ?
Reply | inactive

Ask | Entry `Clc1ccc(-c2cn(-c3ccccc3)c(-c3ccccc3)n2)c(Cl)c1` : call = ?
Reply | inactive

Ask | Entry `CC(C)[C@@H](CS(=O)(=O)C(C)C)N1C(=O)[C@@](C)(CC(=O)O)C[C@H](c2cccc(Cl)c2)[C@H]1c1ccc(Cl)cc1` : call = ?
Reply | inactive

Ask | Entry CC12CCC(O)CC1CCC1C2CCC2(C)C(C3=CC(=O)OC3)CCC12 (stereo not given) : call = ?
Reply | inactive
